- test-target: T1, human cannabinoid receptor type 1 (CB1) (human, UniProt P21554 1-472)
- T1 construct: DiscoverX cAMP Hunter CHO-K1 CNR1 Gi cells for cAMP and pERK assays; also called huCB1; huCB-1
- T1 sequence (P21554 whole entry): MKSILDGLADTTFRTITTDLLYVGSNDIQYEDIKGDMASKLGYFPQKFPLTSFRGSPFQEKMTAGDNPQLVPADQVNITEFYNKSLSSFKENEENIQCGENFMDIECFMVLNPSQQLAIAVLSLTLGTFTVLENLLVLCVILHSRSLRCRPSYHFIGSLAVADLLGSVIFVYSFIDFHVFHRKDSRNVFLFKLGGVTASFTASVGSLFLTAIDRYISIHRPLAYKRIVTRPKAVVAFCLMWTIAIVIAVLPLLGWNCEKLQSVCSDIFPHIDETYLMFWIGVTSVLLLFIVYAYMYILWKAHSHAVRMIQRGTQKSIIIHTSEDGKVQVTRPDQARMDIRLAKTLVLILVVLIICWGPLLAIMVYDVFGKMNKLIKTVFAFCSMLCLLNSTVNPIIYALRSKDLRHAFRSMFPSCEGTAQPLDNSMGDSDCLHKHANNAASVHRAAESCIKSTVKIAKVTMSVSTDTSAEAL
- measurement-description: FACS, titration on CB1 over-expressing CHO cells
property-label: EC50 (nM)

INSERT INTO measurements (binder, measured) VALUES
  ('M1 mouse anti-huCB-1 antibody (antibody, V domains shown) VH: QVQLQQSGAELVRPGVSVKISCKGSGYTFTDHALHWVKQSQARSLEWIGIISTYYGDATYNQKFKGKATMTVDKSSSTAYMELARLTSEDSAFYYCARGGLYYGTNYRAMDYWGQGTSVTVSS VL: DIVMTQSQKFMSTSVGDRVSVTCKASQNVGSNVAWYQQKPGQSPKALIYSASYRYSGVPDRFTGSGSGTDFTLTISNVQSEDLAEYFCQQYNNYPFTFGSGTKLEIK', 15.7),
  ('M6 mouse anti-huCB-1 antibody (antibody, V domains shown) VH: EVQLQQSGPELVKPGASVKISCKASGYTFTDYNLHWVKHGKSLEWIGYIYPYDGDTGYKQKFKGKATLTADKSSSTAYMELRSLTCEDSAVYYCARGYGNSWGAYWGQGTLVTVSA VL: EIVLTQSPTTMAASPGEKITITCSATSSISSNYLHWYQQKPGFSPKLLIYRTSNLASGVPARFSGSGSGTSYSLTIGTMEAEDVATYYCQQGSSIPYTFGGGTKLEIK', 43.5),
  ('M5 mouse anti-huCB-1 antibody (antibody, V domains shown, The humanized M5-H1 and M5-H2 carry the CDRs of the un-numbered VL, so that one may be the functional light chain) VH: QVHLQQSGAELVRPGSSVKISCKASGYEFSYYWMNWVKQRPGQGHEWIGQIYPGDGDTNYNGKFKGKATLTADKSSSTAYMQLSSLTSEDSAVYFCARGREAAWFAYWGQGTLVTVSA VL: DIVLAQSPASLAVSLGQRATISCRASQSVSSFRYSYLHWYQQKPGQPPRLLIKYASNLESGVPARFSGSGSGTDFTLNIHPVEEEDTATYFCQHSWEIPFTFGSGTKLEIKR', 20.2);
